melting point overview

Query block: Request the reported melting point associated with C#CCCCCCCCOc1cccc(C(N)=O)c1 [Example 65, 3-(8-Nonynyloxy)benzenecarboxamide]
Result block: 82 to 83 °C

Query block: Request the reported melting point associated with CCCCCCCCCOc1cc(C(N)=O)ccn1 [Example 94, 2-(Nonyloxy)isonicotinamide]
Result block: 108 to 110 °C

Query block: Request the reported melting point associated with `NC(=O)c1c(F)ccc(OCc2ccc3ccccc3n2)c1F`
Result block: 216 to 218 °C

Query block: Request the reported melting point associated with `NC(=O)c1c(F)ccc(OCc2ccc3sccc3c2)c1F`
Result block: 146 to 148 °C

Query block: Request the reported melting point associated with `CCCCCCOc1c(F)cc(F)c(C(N)=O)c1F`
Result block: 89 to 90 °C

Query block: Request the reported melting point associated with CCCC/C=C\CCCCOc1cccc(C(N)=O)c1 [Example 45, 3-[(Z)-5-Decenyloxy]benzenecarboxamide]
Result block: 98 to 100 °C

Query block: Request the reported melting point associated with `Cc1cccc2sc(COc3ccc(F)c(C(N)=O)c3F)nc12`
Result block: 201 to 202 °C

Query block: Request the reported melting point associated with `NC(=O)c1cccc(OCc2cccc(O)c2)c1`
Result block: 122 to 123 °C

Query block: Request the reported melting point associated with `Cc1cc(COc2ccc(F)c(C(N)=O)c2F)ccn1`
Result block: 185 to 186 °C
